tgt: cynomolgus monkey MuSK (cynomolgus monkey, UniProt A0A2K5USF6 24-487)
Sequence (A0A2K5USF6 entry or part of it): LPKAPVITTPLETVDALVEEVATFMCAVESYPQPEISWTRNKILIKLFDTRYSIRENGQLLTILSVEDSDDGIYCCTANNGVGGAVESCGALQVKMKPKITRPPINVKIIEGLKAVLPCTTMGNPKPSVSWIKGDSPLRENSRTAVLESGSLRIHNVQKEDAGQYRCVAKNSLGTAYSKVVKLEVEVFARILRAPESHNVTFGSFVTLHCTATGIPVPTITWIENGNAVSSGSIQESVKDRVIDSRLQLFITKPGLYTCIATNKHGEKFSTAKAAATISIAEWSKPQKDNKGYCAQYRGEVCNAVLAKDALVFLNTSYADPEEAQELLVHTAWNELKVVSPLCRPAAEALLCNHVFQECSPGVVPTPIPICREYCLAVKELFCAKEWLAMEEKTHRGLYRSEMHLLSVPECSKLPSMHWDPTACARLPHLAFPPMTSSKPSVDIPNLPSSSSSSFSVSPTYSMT
assayRemarks: Biacore, MuSK on chip, association pH 7.4, dissociation pH 5.5
Reported koff is given for each of the following binders.

- binder: "3B2g2m1 (antibody, human IgG1, V domains shown, human IgG1-LALA backbone; produced in HEK293 cells; also called MuSK agonist antibody 3B2g2m1; MuSK-mAb 3B2g2m1) VH: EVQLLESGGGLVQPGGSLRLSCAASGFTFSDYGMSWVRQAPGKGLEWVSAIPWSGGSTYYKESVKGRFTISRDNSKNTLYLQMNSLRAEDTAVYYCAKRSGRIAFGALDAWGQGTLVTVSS VL: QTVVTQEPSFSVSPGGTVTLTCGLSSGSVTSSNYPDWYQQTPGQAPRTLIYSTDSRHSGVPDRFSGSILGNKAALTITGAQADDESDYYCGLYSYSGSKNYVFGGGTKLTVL"
  readingUnit: "s⁻¹"
  koff: 0.00288
- binder: "3B2g2m2 (antibody, human IgG1, V domains shown, human IgG1-LALA backbone; produced in HEK293 cells) VH: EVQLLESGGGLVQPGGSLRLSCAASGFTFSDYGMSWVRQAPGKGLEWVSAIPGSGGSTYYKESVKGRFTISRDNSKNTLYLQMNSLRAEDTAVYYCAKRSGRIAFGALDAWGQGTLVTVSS VL: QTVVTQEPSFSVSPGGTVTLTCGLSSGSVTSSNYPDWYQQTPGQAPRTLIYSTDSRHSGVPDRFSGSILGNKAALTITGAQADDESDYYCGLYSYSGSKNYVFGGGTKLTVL"
  readingUnit: "s⁻¹"
  koff: 0.00326
- binder: "3B2 (antibody, V domains shown, human IgG1 with the LALA mutations (L234A, L235A); produced in HEK293 cells; also called 3B2 mAb; parental 3B2 Ab) VH: ELQLVESGGGLVQPGGSLRLSCAASGFTFDDYGMSWVRQAPGKGLEWVSAIPWNGGSTYYKESVKGRFTISRDNAKKTLYLQMNSLKSEDTAVYYCAKRSGRIAFGALDAWGQGTLVTVSS VL: QAVVTQEPSLSVSPGGTVTLTCGLSSGSVTSSNYPDWYQQTPGQAPRGLIYSTDSRHSGVPSRFSGSISGNKAALTITGAQSEDEADYYCGLYMYSGSKNYVFGGGTKLTVL"
  readingUnit: "s⁻¹"
  koff: 0.00317
- binder: "3B2g1m4 (antibody, human IgG1, V domains shown, human IgG1-LALA backbone; produced in HEK293 cells) VH: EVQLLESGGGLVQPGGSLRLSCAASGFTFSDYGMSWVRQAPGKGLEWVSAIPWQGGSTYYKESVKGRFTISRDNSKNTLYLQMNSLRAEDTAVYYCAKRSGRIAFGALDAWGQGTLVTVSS VL: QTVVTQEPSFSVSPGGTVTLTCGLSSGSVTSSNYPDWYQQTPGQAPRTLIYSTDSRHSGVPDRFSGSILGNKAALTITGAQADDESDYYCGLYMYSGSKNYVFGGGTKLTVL"
  readingUnit: "s⁻¹"
  koff: 0.00261
